Experiment: TOX21_p53_BLA_p5_viability: Viability Assessment in the Tox21 HCT-116 p53 Agonism Beta-lactamase Assay, Phase 5 (AID 2283600)
Inconclusive results are not listed. Calls of active or inactive are those of the source. How the source made its calls: active means hit-call score of the fitted dose curve at least 0.9, where 1 is the maximum; inconclusive means response in the unintended direction; inactive means score below 0.9.
Classes used: true (1) = active, false (0) = inactive

COMPOUND	CAT
CCCCC(CC)COC(=O)CCCCCCCCC(=O)OCC(CC)CCCC (stereo not given)	false (0)
Cc1ccc(O)cc1	false (0)
CCCCCCCCO	false (0)
COc1ccc(/C=C/S(=O)(=O)NC(=O)c2ccc(C)cc2Cl)cc1	false (0)
NC(=O)NO	false (0)
Cn1cnc([N+](=O)[O-])c1Sc1ncnc2nc[nH]c12	false (0)
CCOc1cccc(-n2cc(C(=O)N3CCN(c4cc(C(=O)O)c5ccccc5c4)CC3)nc2-c2ccc(C)cc2)c1	true (1)
O=C(O)CC(O)C(=O)O (stereo not given)	false (0)
CC[C@H]1OC(=O)[C@H](C)[C@@H](O[C@H]2C[C@@](C)(OC)[C@@H](O)[C@H](C)O2)[C@H](C)[C@@H](O[C@@H]2O[C@H](C)C[C@H](N(C)C)[C@H]2O)[C@](C)(O)C[C@@H](C)C(=O)[C@H](C)[C@@H](O)[C@]1(C)O	false (0)
CC(=O)c1ccc2c(c1)[C@H](NC(=O)c1ccc(F)cc1)[C@@H](O)C(C)(C)O2	false (0)

* * *

Target: D(1A) dopamine receptor (Homo sapiens)
Experiment: NVS_GPCR_hDRD1: NovaScreen (NVS) G Protein-Coupled Receptor Assay for human Dopamine Receptor D1 (DRD1) (AID 2283269)
Inconclusive results are not listed. Activity calls are given as the source filed them. The calls were made as follows: active = hit-call score of the fitted dose curve at least 0.9, where 1 is the maximum; inconclusive = response in the unintended direction; inactive = score below 0.9.

COMPOUND	TARGET OR TEST SYSTEM	AC50
CNS(=O)(=O)c1cc(C(=O)N2CCC(CCN3C4CCC3CC(n3c(C)nc5ccccc53)C4)(c3cccc(F)c3)CC2)c(Cl)cc1F (configuration not stated)	D(1A) dopamine receptor (Homo sapiens)	15.8 µM (active)

* * *

Read-out: Interferon-gamma inducible Protein 10 (IP10), CXCL10 (gene 3627)
Experiment: BSK_hDFCGF_IP10: BioMAP Diversity Plus: hDFCGF Assay for Interferon-gamma inducible Protein 10 (IP10) Biomarker Activity (AID 2283053)
Settings: primary human foreskin fibroblasts; actives raise or lower the signal
Activity calls are given as the source filed them. Rule for the calls: active = hit-call score of the fitted dose curve at least 0.9, where 1 is the maximum; inactive = score below 0.9.
Classes used: 1 = active, -1 = inactive

COMPOUND SMILES	CAT
CC(C)CCO	-1
CN(C)c1ccc(Cc2ccc(N(C)C)cc2)cc1	-1
C[C@](N)(Cc1ccc(O)c(O)c1)C(=O)O	1
Cc1[nH]cnc1C[C@H]1CCc2c(C)c3ccccc3n2C1=O	-1
CCOCCOCCOCCO	-1
CC[C@H](C)C(=O)O[C@H]1C[C@@H](C)C=C2C=C[C@H](C)[C@H](CC[C@@H]3C[C@@H](O)CC(=O)O3)[C@H]21	1
CNCc1ccc(NC(=O)c2c[nH]c3c2C(=O)CCC3)cc1	-1

* * *

Assay: LTEA_HepaRG_LDH_cytotoxicity: Cytotoxicity Assessment in the Life Technologies and Expression Analysis (LTEA) Assay (AID 2283563)
The source made the active and inactive calls. How the source made its calls: active means hit-call score of the fitted dose curve at least 0.9, where 1 is the maximum; inconclusive means response in the unintended direction; inactive means score below 0.9.
Classes used: y (active), n (inactive)

MOLECULE	CAT
CC(C)CCCCCCCOC(=O)CCCCC(=O)OCCCCCCCC(C)C	n
CCOCCO	n
CCOC(=O)CC(CC(=O)OCC)(OC(C)=O)C(=O)OCC	n
Cc1ccc(C)c(O)c1	n
O=c1[nH]c2ccc(S(=O)CCN3CCC(Cc4ccc(F)cc4)CC3)cc2o1 (stereo unspecified)	n
CCCCCCc1ccc(O)cc1O	y
C=CCCCCCCCCC(=O)O	n
CC[C@H]1OC(=O)[C@H](C)[C@@H](O[C@H]2C[C@@](C)(OC)[C@@H](O)[C@H](C)O2)[C@H](C)[C@@H](O[C@@H]2O[C@H](C)C[C@H](N(C)C)[C@H]2O)[C@](C)(O)C[C@@H](C)C(=O)[C@H](C)[C@@H](O)[C@]1(C)O	n
Cc1[nH]cnc1C[C@H]1CCc2c(C)c3ccccc3n2C1=O	y
Nc1nc2ncc(CNc3ccc(C(=O)N[C@@H](CCC(=O)O)C(=O)O)cc3)nc2c(=O)[nH]1	n
CC(=O)OC[C@H]1O[C@@](COC(C)=O)(O[C@H]2O[C@H](COC(C)=O)[C@@H](OC(C)=O)[C@H](OC(C)=O)[C@H]2OC(C)=O)[C@@H](OC(C)=O)[C@@H]1OC(C)=O	n
O=C(O)c1cccc(N(Cc2cccnc2)c2ccc(OC(F)F)c(OC(F)F)c2)c1	n
CCCCCCCCO	n
CCNc1ccccc1	n
C1N2CN3CN1CN(C2)C3	n
CCCC(=O)OCC	n
CCCCC(CC)COC(=O)c1ccc(C(=O)OCC(CC)CCCC)cc1 (stereo unspecified)	n
COc1cccc(-c2ccc(/C=C\CN3CCCCCC3)cc2Cl)c1	y
CCc1cc(SCc2sc(-c3ccc(C(F)(F)F)cc3)nc2CN2CCN(c3ccc(OC)cc3)CC2)ccc1OCC(=O)O	y
CCCCCCCCCCCCCCCO	n
CCOCCOCCOCCO	n

* * *

Read-out: Insulin Like Growth Factor 1 (IGF1), IGF1 (gene 3479)
Test: LTEA_HepaRG_IGF1: Life Technologies and Expression Analysis (LTEA) Assay for Insulin Like Growth Factor 1 (IGF1) using HepaRG (AID 2283506)
Conditions: mRNA level, 48 h; actives raise or lower the signal
Description: LTEA_HepaRG is a cell based, multiplexed-readout assay that uses HepaRG, a human liver cell line, with measurements taken at 48 hours after chemical dosing on a 96-well plate.LTEA_HepaRG_IGF1 is one of 102 assay component(s) measured in the LTEA HepaRG cell culture assay. It is a marker of Cell proliferation, survival, death.Data from the assay component LTEA_HepaRG_IGF1 was analyzed into 1 endpoint. […]
Activity calls are given as the source filed them. How the source made its calls: active means hit-call score of the fitted dose curve at least 0.9, where 1 is the maximum; inactive means score below 0.9.

COMPOUND	AC50
Oc1ccc2c(c1)-c1ccccc1C2	inactive
O=c1[nH]c2ccc(S(=O)CCN3CCC(Cc4ccc(F)cc4)CC3)cc2o1 (stereo not given)	inactive
CC(C)CC(C)(O)C#CC(C)(O)CC(C)C (stereo not given)	inactive
Cn1c(=O)cc(Oc2ccc(F)cc2F)c2cnc(NCC(C)(C)O)nc21	12.6 µM (active)
CC(=O)OC[C@H]1O[C@@](COC(C)=O)(O[C@H]2O[C@H](COC(C)=O)[C@@H](OC(C)=O)[C@H](OC(C)=O)[C@H]2OC(C)=O)[C@@H](OC(C)=O)[C@@H]1OC(C)=O	inactive
CC1=CC(=O)CC(C)(C)C1	inactive
CCCCCCCCCCCCCCCO	inactive
O=C(O)CCN(C1(C(=O)NO)CCCC1)S(=O)(=O)c1ccc(Oc2ccc(F)cc2)cc1	inactive
Cn1c(=O)c2c(ncn2C)n(C)c1=O	inactive
CCc1cc(SCc2sc(-c3ccc(C(F)(F)F)cc3)nc2CN2CCN(c3ccc(OC)cc3)CC2)ccc1OCC(=O)O	73.8 µM (active)

* * *

Read-out: ABC Transporter (ABCC2), ABCC2 (gene 1244)
Experiment: LTEA_HepaRG_ABCC2: Life Technologies and Expression Analysis (LTEA) Assay for ABC Transporter (ABCC2) using HepaRG (AID 2283464)
Conditions: mRNA level, 48 h; actives raise or lower the signal
Method: LTEA_HepaRG is a cell based, multiplexed-readout assay that uses HepaRG, a human liver cell line, with measurements taken at 48 hours after chemical dosing on a 96-well plate.LTEA_HepaRG_ABCC2 is one of 102 assay component(s) measured in the LTEA HepaRG cell culture assay. It is a marker of Steatosis/NR mediated transport.Data from the assay component LTEA_HepaRG_ABCC2 was analyzed into 1 endpoint. […]
Calls of active or inactive are those of the source. The calls were made as follows: active = hit-call score of the fitted dose curve at least 0.9, where 1 is the maximum; inactive = score below 0.9.
Classes used: class 1 (active), class 0 (inactive)

MOLECULE	CAT
CNS(=O)(=O)c1cc(C(=O)N2CCC(CCN3C4CCC3CC(n3c(C)nc5ccccc53)C4)(c3cccc(F)c3)CC2)c(Cl)cc1F (configuration not stated)	class 0
CC(C)CCCCCCCOC(=O)CCCCC(=O)OCCCCCCCC(C)C	class 0
CC(=O)c1ccc2c(c1)[C@H](NC(=O)c1ccc(F)cc1)[C@@H](O)C(C)(C)O2	class 1
C1N2CN3CN1CN(C2)C3	class 0
CC/C(=C\C(=N/O)C(N)=O)C(C)[N+](=O)[O-] (configuration not stated)	class 0
Cc1[nH]cnc1C[C@H]1CCc2c(C)c3ccccc3n2C1=O	class 1
Nc1ccc(Nc2ccccc2)cc1	class 0

* * *

Read-out: Hypoxia-inducible factor 1-alpha (Homo sapiens) (UniProt Q16665)
Sequence (Q16665 whole entry, looked up): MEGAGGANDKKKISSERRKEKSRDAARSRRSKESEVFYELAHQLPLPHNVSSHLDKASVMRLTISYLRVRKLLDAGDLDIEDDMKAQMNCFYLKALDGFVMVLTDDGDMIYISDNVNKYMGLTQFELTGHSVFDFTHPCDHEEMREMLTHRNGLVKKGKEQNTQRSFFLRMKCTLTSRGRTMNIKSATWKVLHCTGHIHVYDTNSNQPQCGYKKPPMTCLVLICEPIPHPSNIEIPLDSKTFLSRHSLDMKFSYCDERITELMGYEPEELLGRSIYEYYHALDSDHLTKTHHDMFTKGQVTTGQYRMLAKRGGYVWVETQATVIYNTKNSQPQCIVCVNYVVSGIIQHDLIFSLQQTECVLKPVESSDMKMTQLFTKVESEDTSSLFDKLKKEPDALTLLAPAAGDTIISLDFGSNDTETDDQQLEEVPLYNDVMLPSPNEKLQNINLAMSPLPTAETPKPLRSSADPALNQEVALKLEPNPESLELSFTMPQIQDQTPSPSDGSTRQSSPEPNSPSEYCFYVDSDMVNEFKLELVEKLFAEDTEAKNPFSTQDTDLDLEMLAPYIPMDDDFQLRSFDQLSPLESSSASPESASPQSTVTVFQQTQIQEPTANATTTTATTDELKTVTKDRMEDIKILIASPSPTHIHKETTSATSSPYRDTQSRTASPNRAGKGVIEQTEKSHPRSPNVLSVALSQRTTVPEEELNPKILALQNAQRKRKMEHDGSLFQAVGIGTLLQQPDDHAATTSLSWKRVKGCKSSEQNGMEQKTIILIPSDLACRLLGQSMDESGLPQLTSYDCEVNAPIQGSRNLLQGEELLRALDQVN
Experiment: LTEA_HepaRG_HIF1A: Life Technologies and Expression Analysis (LTEA) Assay for Hypoxia-inducible factor 1 (HIF1A) Trancription factor using HepaRG (AID 2283503);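 further: HIF1A transcript by TaqMan qRT-PCR normalized to ACTB GAPDH and POLR2A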
Conditions: mRNA level, 48 h; actives raise or lower the signal
Active and inactive are the calls of the source. Rule for the calls: active = hit-call score of the fitted dose curve at least 0.9, where 1 is the maximum; inactive = score below 0.9.
Classes used: 1 (yes) for active, 0 (no) for inactive

COMPOUND	CAT
CC/C(=C\C(=N/O)C(N)=O)C(C)[N+](=O)[O-] (stereo not drawn)	0 (no)
Cc1ccc(N)cc1O	0 (no)
CCOC(=O)c1ccc(C2CCC(NC[C@H](O)COc3ccc(O)c(NS(C)(=O)=O)c3)CC2)cc1 (stereo partly drawn)	0 (no)
C=CC(=C)CCC=C(C)C	0 (no)
CCCCC(CC)COC(=O)c1ccc(C(=O)OCC(CC)CCCC)cc1 (stereo not drawn)	0 (no)
Nc1ccc(Nc2ccccc2)cc1	1 (yes)
CCCCCCCCO	0 (no)
CC(C)=CCCC(C)CCO (stereo not drawn)	0 (no)
C[C@](N)(Cc1ccc(O)c(O)c1)C(=O)O	0 (no)
Cc1ccc(S(=O)(=O)O)cc1C	0 (no)
Cn1c(=O)c2c(ncn2C)n(C)c1=O	0 (no)
O=c1n(CC2CO2)c(=O)n(CC2CO2)c(=O)n1CC1CO1 (stereo not drawn)	0 (no)
CCOC(=O)CC(CC(=O)OCC)(OC(C)=O)C(=O)OCC	0 (no)
O=P(OC(CCl)CCl)(OC(CCl)CCl)OC(CCl)CCl	0 (no)
COc1cccc(-c2ccc(/C=C\CN3CCCCCC3)cc2Cl)c1	1 (yes)
O=C(O)c1cccc(N(Cc2cccnc2)c2ccc(OC(F)F)c(OC(F)F)c2)c1	0 (no)
CCCC(=O)OCC	0 (no)
CCOc1cccc(-n2cc(C(=O)N3CCN(c4cc(C(=O)O)c5ccccc5c4)CC3)nc2-c2ccc(C)cc2)c1	1 (yes)
Oc1ccc2c(c1)-c1ccccc1C2	0 (no)
Fc1ccccc1[C@@H](F)COC1CCC(Nc2ncnc3[nH]ncc23)CC1 (stereo partly drawn)	1 (yes)
Cn1c(=O)cc(Oc2ccc(F)cc2F)c2cnc(NCC(C)(C)O)nc21	0 (no)
CCCCCCc1ccc(O)cc1O	0 (no)
CN(C)c1ccc(N=NS(=O)(=O)O)cc1	0 (no)
CC(C)=CCCC(C)=CC=O	0 (no)
CC(=O)OCCC(C)C	0 (no)
CCCCCCCCCCCCc1ccccc1	0 (no)
CC(C)c1cccc(C(C)C)c1N1C(=O)c2ccc(O)cc2C1=O	0 (no)
CC[C@H]1CC[C@H](NCc2cc3c(cc2OC)[C@H]2C[C@H]2C(=O)N3C)[C@H](c2ccccc2)N1	0 (no)
Nc1cccc(N)c1	0 (no)
CCOCCO	0 (no)
CC(C)CCCCCCOC(=O)c1ccc(C(=O)OCCCCCCC(C)C)c(C(=O)OCCCCCCC(C)C)c1	0 (no)
C=CCCCCCCCCC(=O)O	0 (no)
COC(=O)c1ccccc1O	0 (no)
O=C1CCCCCN1	0 (no)
CC(=O)c1ccc2c(c1)[C@H](NC(=O)c1ccc(F)cc1)[C@@H](O)C(C)(C)O2	0 (no)
Clc1nc(Cl)c(Cl)c(Cl)c1Cl	0 (no)
O=C(NS(=O)(=O)/C=C/c1ccccc1)c1ccc(F)cc1Cl	0 (no)
CN(C)c1ccc(Cc2ccc(N(C)C)cc2)cc1	0 (no)
O=C(OC[C@H]1O[C@@H](OC(=O)c2cc(O)c(O)c(OC(=O)c3cc(O)c(O)c(O)c3)c2)[C@H](OC(=O)c2cc(O)c(O)c(OC(=O)c3cc(O)c(O)c(O)c3)c2)[C@@H](OC(=O)c2cc(O)c(O)c(OC(=O)c3cc(O)c(O)c(O)c3)c2)[C@@H]1OC(=O)c1cc(O)c(O)c(OC(=O)c2cc(O)c(O)c(O)c2)c1)c1cc(O)c(O)c(OC(=O)c2cc(O)c(O)c(O)c2)c1	0 (no)
CC(C)CCCCCCCOC(=O)CCCCC(=O)OCCCCCCCC(C)C	0 (no)
C1N2CN3CN1CN(C2)C3	0 (no)
O=C(O)CCN(C1(C(=O)NO)CCCC1)S(=O)(=O)c1ccc(Oc2ccc(F)cc2)cc1	0 (no)
CCCCC(CC)COC(=O)CCCCCCCCC(=O)OCC(CC)CCCC (stereo not drawn)	0 (no)
CC[C@H](C)C(=O)O[C@H]1C[C@@H](C)C=C2C=C[C@H](C)[C@H](CC[C@@H]3C[C@@H](O)CC(=O)O3)[C@H]21	0 (no)
CCNc1ccccc1	0 (no)
COCCOc1cc2cc(C(=O)NC3CCN(C(C)C)CC3)n(CC(=O)Nc3ccc(Cl)cn3)c2cn1	1 (yes)
CCCCCCCCCCCCCCCO	0 (no)
COc1ccc(/C=C/S(=O)(=O)NC(=O)c2ccc(C)cc2Cl)cc1	0 (no)

Where do these numbers come from? They come from PubChem BioAssay (EPA / NIEHS).
